- measured target: VEGF165 (recombinant human vascular endothelial growth factor, 165 aa form) (Homo sapiens, UniProt P15692-4 P15692-4:27-191)
- Sequence (P15692 other isoform, or with tags, fused parts or gaps): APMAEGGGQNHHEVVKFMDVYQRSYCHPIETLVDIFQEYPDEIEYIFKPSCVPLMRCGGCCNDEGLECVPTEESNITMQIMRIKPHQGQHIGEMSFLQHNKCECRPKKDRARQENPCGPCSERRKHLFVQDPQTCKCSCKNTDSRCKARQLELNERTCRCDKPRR
- protocol notes: filter; Kd1, X1 0.50, Kd2 15 nM
- measurement conditions: tags: gift from N. Ferrara, Genentech; chain copies: 2 (dimer, stated)
pKd: −log10 of the molar value.
measurement type: pKd

>>> numeric_value("32B (ssRNA, 2'-NH2 pyrimidines) RNA: GGGAGGACGAUGCGGCAACAUUGGCACCAAUGCUCUGUGUUAAUGUGGGGUGGGAACGGCGCCGCAGACGACUCGCCCGA")
10.30
